# assay_comment: amyloid nucleation score (Sup35N fusion, yeast selection) (log enrichment); library NNK3; higher = more nucleation; inactive = no reads after selection;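 further: zero at mode of non-aggregating sequences after 7 days selection at 30°C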
metric: amyloid nucleation score

> print(dat)
               substance  value.reported
 1  WVQPSYRPSCVLYRSNNNNR        inactive
 2  LNSMGYFILFYIYRFLENLD        inactive
 3                SYMGHV           0.506
 4             SHVKYNNMW        inactive
 5  WSIRYVLICIGVSKIVCRPL        inactive
 6  CSNKQSDTSFAYLTIMNMCP        inactive
 7       RLVRSMAFYNHVIYL           0.012
 8             ICQQCWTVT        inactive
 9               FLMWVSR            1.08
10  SLIDRIIVKPKVWTGGKNYP        inactive
11                INPYVL        inactive
12  LCFNLYMFCSYVCGMAIKSL        inactive
13  NRVAYTAQCQIIFCVGGYCL            2.72
14  NSYFGMWVITGFFLASMCIR        inactive
